target: ZFP SBS#1456 (synthetic); assay: EMSA; settings: tags: MBP fusion
Sequence (chain, as listed by the source): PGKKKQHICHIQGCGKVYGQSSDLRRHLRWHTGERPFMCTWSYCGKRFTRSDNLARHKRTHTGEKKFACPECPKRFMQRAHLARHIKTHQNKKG
quantity: Kd (nM)
Report only the number, with the unit nM understood.

Need Kd of GGAGAGGCT (dsDNA) DNA 1: GGAGAGGCT DNA 2: AGCCTCTCC , thanks.
0.016
